Let's look at some compounds and their measured Emax.
test system: AP-1 induced transcriptional activity; experiment: Cellular Transrepressional Assay: AP-1 luciferase reporter in PMA-activated A549 cells; format: cell-based; details: Homo sapiens, A549, 7 h, maximum inhibition, Cellular Transrepression Assay; read-out: AP-1 Max % inh (Cellular Transrepression Assay)

COMPOUND | Emax
CCc1ccc(-c2ccc(C(c3ccccc3)C(C)(C)C(=O)Nc3nncs3)cc2)cc1 (centres unmarked) [Example 407] | 37.5%
COc1ccc(C(c2ccccc2)C(C)(C)C(=O)Nc2ncc(C)s2)cc1 (centres unmarked) [Example 105] | 22.1%
CCOC(=O)c1csc(NC(=O)C(C)(C)[C@H](c2ccccc2)c2ccc(OC)cc2)n1 [Example 264] | 58.6%
CCOC(=O)c1sc(NC(=O)C(C)(C)C(c2ccccc2)c2cccc(O)c2)nc1C (centres unmarked) [Example 206] | 37.7%
COc1cccc(C(c2ccccc2)C(C)(C)C(=O)Nc2nc(C(C)(C)C)cs2)c1 (centres unmarked) [Example 96] | 37.1%
CC(C)(C(=O)Nc1nccs1)C(c1ccc(N2CCOCC2)cc1)c1cccc(F)c1 (single isomer, unassigned) [Example 253] | 27.9%
CC(C)(C(=O)Nc1nccs1)[C@H](c1ccccc1)c1ccc(N2CCOCC2)cc1 (stereo in doubt) [Example 258] | 42.7%
CC(C)(C)NC(=O)c1ccc(-c2ccc(C(c3ccccc3)C(C)(C)C(=O)Nc3nncs3)cc2)cc1 (centres unmarked) [Example 424] | 26.4%

###

molecular target: human glucocorticoid receptor (Homo sapiens); construct: purified human recombinant full-length glucocorticoid receptor; purchased Invitrogen Part #2893; assay: Glucocorticoid Receptor Binding Assay (I), fluorescence polarization competitor kit (Fluormone GS Red); settings: GR Binding Assay (I)
Sequence (P04150 whole entry): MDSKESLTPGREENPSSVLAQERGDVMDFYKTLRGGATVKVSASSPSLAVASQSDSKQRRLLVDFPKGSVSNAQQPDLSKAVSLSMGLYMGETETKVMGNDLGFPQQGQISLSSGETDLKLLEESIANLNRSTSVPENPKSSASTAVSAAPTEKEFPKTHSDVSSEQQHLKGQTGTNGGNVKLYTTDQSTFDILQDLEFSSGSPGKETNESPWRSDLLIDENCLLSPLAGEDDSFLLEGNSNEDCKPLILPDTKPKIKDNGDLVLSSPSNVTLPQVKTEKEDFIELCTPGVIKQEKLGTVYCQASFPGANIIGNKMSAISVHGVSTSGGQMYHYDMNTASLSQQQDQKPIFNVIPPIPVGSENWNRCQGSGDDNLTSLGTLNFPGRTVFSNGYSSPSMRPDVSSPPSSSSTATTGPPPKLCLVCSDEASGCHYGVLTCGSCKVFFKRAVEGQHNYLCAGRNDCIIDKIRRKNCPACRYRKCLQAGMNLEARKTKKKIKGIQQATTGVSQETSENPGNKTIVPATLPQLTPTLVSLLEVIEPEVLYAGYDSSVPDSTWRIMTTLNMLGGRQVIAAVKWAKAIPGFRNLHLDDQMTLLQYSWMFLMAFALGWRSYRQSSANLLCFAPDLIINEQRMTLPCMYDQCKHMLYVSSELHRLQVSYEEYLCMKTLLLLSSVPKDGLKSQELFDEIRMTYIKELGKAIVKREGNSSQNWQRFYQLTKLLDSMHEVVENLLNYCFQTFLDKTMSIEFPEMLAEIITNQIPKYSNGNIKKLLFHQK
# note: exactly 7 nM is not below, so it is Not met; use Met for Ki strictly under it

COMPOUND | CLASS
COc1ccccc1-c1ccc(C(c2ccccc2)C(C)(C)C(=O)Nc2nncs2)cc1 (centres unmarked) [Example 411] | Not met
CC(C)Cc1ccc(-c2ccc(C(CC(C)C)C(C)(C)C(=O)Nc3nncs3)cc2)cc1 (centres unmarked) [Example 397] | Not met
CCCCOc1ccc(-c2ccc(C(c3ccccc3)C(C)(C)C(=O)Nc3nncs3)cc2)cc1 (centres unmarked) [Example 416] | Not met
CCOc1ccc(-c2ccc(C(CC(C)C)C(C)(C)C(=O)Nc3nncs3)cc2)cc1 (centres unmarked) [Example 430] | Met
CC(C)CC(c1ccc(Br)cc1)C(C)(C)C(=O)Nc1nccs1 (centres unmarked) [Example 386] | Not met
CC(C)(C(=O)Nc1nncs1)C(c1ccc(N2CCOCC2)cc1)c1cccc(F)c1 (single isomer, unassigned) [Example 256] | Not met
CCOc1ccc(-c2ccc(C(c3ccccc3)C(C)(C)C(=O)Nc3nncs3)cc2)cc1 (centres unmarked) [Example 419] | Met
CC(C)(C)c1csc(NC(=O)C2(C(c3ccccc3)c3ccccc3)CCCC2)n1 [Example 151] | Not met
O=C(Nc1nccs1)C1(C(c2ccccc2)c2ccccc2)CCCCC1 [Example 156] | Not met
O=C(Nc1nccs1)C1(C(c2ccccc2)c2ccccc2)CCC1 [Example 153] | Not met
CC(C)(C(=O)Nc1nncs1)C(c1ccccc1)c1ccc(-c2ccc(O)cc2)cc1 (centres unmarked) [Example 412] | Not met
CC(C)Oc1ccc(-c2ccc(C(c3ccccc3)C(C)(C)C(=O)Nc3nncs3)cc2)cc1F (centres unmarked) [Example 385] | Not met
CC(C)CC(c1ccc(-c2ccc(OC(F)(F)F)cc2)cc1)C(C)(C)C(=O)Nc1nncs1 (centres unmarked) [Example 437] | Met
CCCc1ccc(-c2ccc(C(c3ccccc3)C(C)(C)C(=O)Nc3nncs3)cc2)cc1 (centres unmarked) [Example 384] | Met
CC(C)(C(=O)Nc1nncs1)C(c1ccccc1)c1ccc(Br)cc1 (centres unmarked) [Example 323] | Met
CC(C)(C(=O)Nc1nncs1)C(c1ccccc1)c1ccc(-c2ccc(CO)cc2)cc1 (centres unmarked) [Example 421] | Met
